The following binders are listed with their measured SPOT peptide array binding signal intensity values.
- Target under test: CaLsb1
- Procedure text: SPOT peptide array binding signal intensity (averaged, normalized) (arbitrary units (background-subtracted, floor 0; scale differs between SH3 domains)); higher = stronger binding of the SH3 domain to the peptide
Recorded endpoint: SPOT peptide array binding signal intensity

ISNFVPPNLPMRRFK :: 10.2
RRTRLRPPTPLSQLL :: 0.5
PPPPPPPPPPPLPQS :: 2.25
YVRRRPRVRLEPLLS :: 0.75
